- system.tested: Integrin alpha-V/beta-3 (Homo sapiens, UniProt P05106+P06756)
- Sequence (P05106 27-788 limits assumed): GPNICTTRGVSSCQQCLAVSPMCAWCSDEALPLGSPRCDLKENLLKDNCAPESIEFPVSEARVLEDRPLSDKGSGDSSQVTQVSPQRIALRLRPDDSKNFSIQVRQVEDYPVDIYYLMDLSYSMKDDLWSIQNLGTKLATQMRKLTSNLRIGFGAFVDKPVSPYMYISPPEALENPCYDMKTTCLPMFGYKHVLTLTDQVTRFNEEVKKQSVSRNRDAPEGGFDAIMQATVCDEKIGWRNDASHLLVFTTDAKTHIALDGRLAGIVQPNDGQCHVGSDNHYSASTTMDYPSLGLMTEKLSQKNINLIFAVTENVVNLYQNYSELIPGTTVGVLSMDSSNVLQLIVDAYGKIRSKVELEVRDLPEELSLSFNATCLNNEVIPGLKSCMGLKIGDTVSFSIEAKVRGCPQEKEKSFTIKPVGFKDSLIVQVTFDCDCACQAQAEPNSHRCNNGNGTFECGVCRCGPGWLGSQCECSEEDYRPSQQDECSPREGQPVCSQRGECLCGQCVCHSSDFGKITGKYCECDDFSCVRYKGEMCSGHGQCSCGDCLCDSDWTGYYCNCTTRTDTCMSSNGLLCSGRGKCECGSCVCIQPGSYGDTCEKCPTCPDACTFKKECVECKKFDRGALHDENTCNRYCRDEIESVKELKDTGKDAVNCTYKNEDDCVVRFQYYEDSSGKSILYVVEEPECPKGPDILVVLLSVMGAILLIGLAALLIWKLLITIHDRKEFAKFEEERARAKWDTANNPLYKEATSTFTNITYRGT
- Sequence (P06756 31-889 limits assumed): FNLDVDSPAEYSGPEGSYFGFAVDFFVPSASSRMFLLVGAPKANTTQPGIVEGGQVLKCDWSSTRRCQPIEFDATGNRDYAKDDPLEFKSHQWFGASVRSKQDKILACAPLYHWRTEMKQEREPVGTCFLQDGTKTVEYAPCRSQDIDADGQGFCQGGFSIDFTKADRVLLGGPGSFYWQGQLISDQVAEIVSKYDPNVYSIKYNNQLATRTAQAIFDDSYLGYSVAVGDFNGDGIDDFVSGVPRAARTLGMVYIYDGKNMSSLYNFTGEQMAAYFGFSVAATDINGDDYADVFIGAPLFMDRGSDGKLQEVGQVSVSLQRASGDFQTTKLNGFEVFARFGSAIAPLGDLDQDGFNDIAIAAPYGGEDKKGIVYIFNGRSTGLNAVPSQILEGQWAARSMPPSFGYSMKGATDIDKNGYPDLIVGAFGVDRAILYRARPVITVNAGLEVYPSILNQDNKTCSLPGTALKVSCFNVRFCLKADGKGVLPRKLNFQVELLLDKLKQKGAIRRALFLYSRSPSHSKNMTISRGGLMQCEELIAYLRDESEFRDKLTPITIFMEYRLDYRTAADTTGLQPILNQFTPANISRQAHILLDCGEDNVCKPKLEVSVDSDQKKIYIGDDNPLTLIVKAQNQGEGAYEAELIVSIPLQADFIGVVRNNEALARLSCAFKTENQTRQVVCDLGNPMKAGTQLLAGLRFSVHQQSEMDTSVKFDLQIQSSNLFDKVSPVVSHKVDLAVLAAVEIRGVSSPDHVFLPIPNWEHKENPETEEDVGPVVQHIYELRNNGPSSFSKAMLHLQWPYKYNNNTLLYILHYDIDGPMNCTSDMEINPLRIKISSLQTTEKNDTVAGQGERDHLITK
- Sequence (P06756 891-1048 limits assumed): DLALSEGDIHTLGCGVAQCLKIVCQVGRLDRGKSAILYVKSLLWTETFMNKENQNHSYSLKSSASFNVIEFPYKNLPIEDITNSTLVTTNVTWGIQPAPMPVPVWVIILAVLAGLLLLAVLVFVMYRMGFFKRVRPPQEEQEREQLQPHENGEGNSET
- experimental.protocol: Displacement of [125I]-echistatin from alphavbeta3 integrin receptor
- Format: protein-complex assay
Parameter IC50: see the listing below.
property.name: IC50 (nM)

> print(dat)
                    structure.smiles.string                             system.tested  property.name  value
1  N=C(N)NCCC[C@@H]1NC(=O)[C@@H]2C[C@H](NC(=O)[C@H](CC(=O)O)NC(=O)CNC1=O)[C@@H](O)[C@@H]2O  Integrin alpha-V/beta-3 (Homo sapiens, UniProt P05106+P06756)           IC50   44.7
2  N=C(N)NCCC[C@@H]1NC(=O)[C@@H]2CC[C@H](C2)NC(=O)[C@H](CC(=O)O)NC(=O)CNC1=O  Integrin alpha-V/beta-3 (Homo sapiens, UniProt P05106+P06756)           IC50    1.5
3  N=C(N)NCCC[C@@H]1NC(=O)[C@H]2C[C@H](NC(=O)[C@H](CC(=O)O)NC(=O)CNC1=O)[C@@H](O)C2  Integrin alpha-V/beta-3 (Homo sapiens, UniProt P05106+P06756)           IC50   35.6
4  N=C(N)NCCC[C@@H]1NC(=O)[C@@H]2C[C@H](NC(=O)[C@H](CC(=O)O)NC(=O)CNC1=O)[C@@H](O)[C@H]2O  Integrin alpha-V/beta-3 (Homo sapiens, UniProt P05106+P06756)           IC50   51.4

// provenance: ChEMBL document CHEMBL1141196
